# Assay Explanation: Leaching characteristics from feed pellets under water
# Format: physicochemical
# Recorded Conditions: Time 30; 20.0 g pellets in 200 g water, 20° C.
# Protocol: The feed matrix used was a methionine-deficient feed mixture of conventional ingredients such as, for example, soybean meal, soybean oil, cornstarch, wheat meal, fish meal, cellulose, crystalline essential amino acids and minerals and vitamins as premixes. […] In this case, the dissolving out of methionylmethionine under water as a function of time, temperature, water composition (salt or fresh water) was determined. […]
Property Label: dissolved out of feed pellets under water (%)
Your answer should be a plain number; it is taken to be in %.

Observe how each entry below is paired with its result.
CSCCC(N)C(=O)O (racemic) = 39.9
CSCCC(N)C(=O)NC(CCSC)C(=O)O (mixture of isomers) [LL/DD/LD/DL-I, DL-methionyl-DL-methionine] = 5.4
CSCCC(N)C(=O)NC(CCSC)C(=O)O (stereo not drawn) [LL/DD-I, DD/LL-methionylmethionine] = 12.1

Look up dissolved out of feed pellets under water for this molecule: CSCCC(O)C(=O)[O-].CSCCC(O)C(=O)[O-].[Ca+2] (stereo not drawn) [MHA-Ca, reference compound]
61.7

Now consider CSCCC(N)C(=O)NC(CCSC)C(=O)O (stereo not drawn) [DL/LD-I, DL/LD-methionylmethionine] .
0.6

Now consider CSCCC(O)C(=O)O (racemic) [MHA, reference compound] .
50.5

* * *

# Assay Explanation: Leaching characteristics from feed pellets under water
# Type: physicochemical
# Recorded Conditions: Time 15; 20.0 g pellets in 200 g water, 20° C.
Property Label: dissolved out of feed pellets under water
Remember to follow the number with its unit.

Observe how each entry below is paired with its result.
CSCCC(N)C(=O)NC(CCSC)C(=O)O (mixture of isomers) [LL/DD/LD/DL-I, DL-methionyl-DL-methionine] = 3.6%
CSCCC(O)C(=O)[O-].CSCCC(O)C(=O)[O-].[Ca+2] (stereo not drawn) [MHA-Ca, reference compound] = 39.4%
CSCCC(O)C(=O)O (racemic) [MHA, reference compound] = 28.8%
CSCCC(N)C(=O)NC(CCSC)C(=O)O (stereo not drawn) [LL/DD-I, DD/LL-methionylmethionine] = 7.7%
CSCCC(N)C(=O)NC(CCSC)C(=O)O (stereo not drawn) [DL/LD-I, DL/LD-methionylmethionine] = 0.6%

Look up dissolved out of feed pellets under water for this compound: CSCCC(N)C(=O)O (racemic) [Methionine, DL-methionine]
24.0%

* * *

# Assay Explanation: Leaching characteristics from feed pellets under water
# Assay type: physicochemical
# Recorded Conditions: Time 0; 20.0 g pellets in 200 g water, 20° C.
Use Met when the recorded dissolved out of feed pellets under water is no lower than 6%; use Not met when it is lower.

As a guide, the following entries are already answered.
CSCCC(N)C(=O)NC(CCSC)C(=O)O (stereo not drawn) [LL/DD-I, DD/LL-methionylmethionine] = Not met
CSCCC(N)C(=O)NC(CCSC)C(=O)O (mixture of isomers) [LL/DD/LD/DL-I, DL-methionyl-DL-methionine] = Not met
CSCCC(O)C(=O)[O-].CSCCC(O)C(=O)[O-].[Ca+2] (stereo not drawn) [MHA-Ca, reference compound] = Met
CSCCC(N)C(=O)O (racemic) = Not met

Lab note: next molecule to report on.
Quick check, dissolved out of feed pellets under water >= 6%? CSCCC(N)C(=O)NC(CCSC)C(=O)O (stereo not drawn) [DL/LD-I, DL/LD-methionylmethionine]
Not met

* * *

# Assay Explanation: Leaching characteristics from feed pellets under water
# Assay type: physicochemical
# Recorded Conditions: Time 5; 20.0 g pellets in 200 g water, 20° C.
Overview of reported dissolved out of feed pellets under water across a group of compounds:
Your answer should be a plain number; it is taken to be in %.

Observe how each entry below is paired with its result.
CSCCC(O)C(=O)O (racemic) [MHA, reference compound] = 12.8
CSCCC(N)C(=O)O (racemic) = 12.0
CSCCC(N)C(=O)NC(CCSC)C(=O)O (stereo not drawn) [DL/LD-I, DL/LD-methionylmethionine] = 0.7
CSCCC(N)C(=O)NC(CCSC)C(=O)O (stereo not drawn) [LL/DD-I, DD/LL-methionylmethionine] = 3.7
CSCCC(O)C(=O)[O-].CSCCC(O)C(=O)[O-].[Ca+2] (stereo not drawn) [MHA-Ca, reference compound] = 16.5

Kindly consider the entry below.
Look up dissolved out of feed pellets under water for this compound: CSCCC(N)C(=O)NC(CCSC)C(=O)O (mixture of isomers) [LL/DD/LD/DL-I, DL-methionyl-DL-methionine]
2.0

* * *

# Assay Explanation: Leaching characteristics from feed pellets under water
# Format: physicochemical
# Recorded Conditions: Time 60; 20.0 g pellets in 200 g water, 20° C.
Overview of reported dissolved out of feed pellets under water across a group of compounds:
Your answer should be a plain number; it is taken to be in %.

Observe how each entry below is paired with its result.
CSCCC(N)C(=O)NC(CCSC)C(=O)O (stereo not drawn) [LL/DD-I, DD/LL-methionylmethionine] = 20.6
CSCCC(N)C(=O)NC(CCSC)C(=O)O (mixture of isomers) [LL/DD/LD/DL-I, DL-methionyl-DL-methionine] = 9.5
CSCCC(N)C(=O)O (racemic) = 59.9

Look up dissolved out of feed pellets under water for this compound: CSCCC(N)C(=O)NC(CCSC)C(=O)O (stereo not drawn) [DL/LD-I, DL/LD-methionylmethionine]
1.7

Now consider CSCCC(O)C(=O)O (racemic) [MHA, reference compound] .
75.4

Now consider CSCCC(O)C(=O)[O-].CSCCC(O)C(=O)[O-].[Ca+2] (stereo not drawn) [MHA-Ca, reference compound] .
82.4
